System: C57BL/6 mice given hANGPTL4-mFc
Assay type: in vivo
assay_conditions: antibody 5 mg/kg s.c.; 24 h later hANGPTL4-mFc 25 μg/mouse i.v.; bled 30 min after; mean±SEM
Measured HDL of individual entries
# output: numeric value plus its unit

molecule	HDL
H1H236N2: anti-hANGPTL4 antibody, HCVR/LCVR SEQ ID NOs 458/394 (antibody, V domains shown) VH: EVQLVESGGGLVQPGRSLRLSCAASGFTFDDYAMHWVRQAPGKGLEWVSGISWNSGSIVYADSVKGRFTISRDNAKNSLYLQMNSLISEDTALYYCAKDESSSSGNWFDPWGQGTLVTVSS VL: EVVMTQSPATLSVSPGERATLSCRASQSVSSNLAWYQQKPGQAPRLLIYGASTRATGIPARFSGSGSGTEFTLTISSLQSEDFAVYYCQEYNNWITFGQGTRLEIK	33.78 ± 1.13 mg/dL

Please turn your attention to the following entry.
Prompt line: Retrieve HDL measured for H1H257P: anti-hANGPTL4 antibody, HCVR/LCVR SEQ ID NOs 18/20 (antibody, V domains shown) VH: EVQLVESGGGLVQPGGSLRLSCAASGFTFSSYDMHWVRQVAGKGLEWVSAIGTAGDTYYPVSVKGRFTISRENAKNSLYLHMNSLRAGDTAVYFCARGDSRNYYVGDYFDYWGQGTLVTVSS VL: DIQMTQSPSTLSASVGDRVTITCRASQSISRWLAWYQQKPGKAPKVLIYQASNLESGVPSRFSGSGSGTEFTLTISSLQPDDFATYYCQQYDSYSRAFGRGTKVEIK and print it.
Response line: 41.38 ± 3.24 mg/dL
